Source listed as patent US9795602B2.

# assay_details: Plasma protein binding (equilibrium dialysis)
# Type: in vitro ADME
# assay_conditions: human, plasma (sodium EDTA) dialysed against buffer; 2 μM in plasma vs. buffer, 24 hours at 37° C.; read-out: % Free HP/Buffer

>  <molecule>
CCN1C(=O)c2c(O)c(=O)c(C(=O)NCc3ccc(F)c(Cl)c3F)cn2[C@H]2CCO[C@H]21 [Compound 25b]

>  <readout_relation>
<

>  <fraction unbound at 24 h, 2 µM>
0.001

$$$$
>  <molecule>
C[C@@H]1CCO[C@H]2Cn3cc(C(=O)NCc4ccc(F)cc4F)c(=O)c(O)c3C(=O)N12 [Dolutegravir, reference compound]

>  <readout_relation>
=

>  <fraction unbound at 24 h, 2 µM>
0.01

$$$$
>  <molecule>
CCN1C(=O)c2c(O)c(=O)c(C(=O)NCc3ccc(F)c(Cl)c3F)cn2[C@H]2CCOC[C@H]21

>  <readout_relation>
=

>  <fraction unbound at 24 h, 2 µM>
0.0067

$$$$

* * *

# assay_details: Cytotoxicity (CC50) in MT4 cells, mock-infected
# Type: cell-based
# assay_conditions: human, mock-infected (uninfected)
Please note: CC50 at 5 days exactly at 30 µM is not satisfied. Only values below 30 µM get satisfied.

>  <compound>
CCN1C(=O)c2c(O)c(=O)c(C(=O)NCc3c(F)cc(F)cc3F)cn2[C@@H]2CCO[C@@H]21 [Compound 26a]

>  <answer_label>
satisfied

$$$$
>  <compound>
CCN1C(=O)c2c(O)c(=O)c(C(=O)NCc3ccc(F)c(Cl)c3F)cn2[C@@H]2CCO[C@@H]21 [Compound 25a]

>  <answer_label>
satisfied

$$$$
>  <compound>
CCN1C(=O)c2c(O)c(=O)c(C(=O)NCc3ccc(F)c(F)c3F)cn2[C@H]2CCOC[C@H]21 [Compound 19]

>  <answer_label>
satisfied

$$$$
>  <compound>
CC(C)N1C(=O)c2c(O)c(=O)c(C(=O)NCc3c(F)cc(F)cc3F)cn2[C@H]2CCOC[C@H]21 [Compound 38]

>  <answer_label>
satisfied

$$$$
>  <compound>
CCN1C(=O)c2c(O)c(=O)c(C(=O)NCc3cc(F)c(F)cc3F)cn2[C@H]2CCOC[C@H]21 [Compound 17]

>  <answer_label>
satisfied

$$$$
>  <compound>
CCN1C(=O)c2c(O)c(=O)c(C(=O)NCc3c(F)cc(F)cc3F)cn2[C@@H]2COC[C@@H]21 [Compound 45]

>  <answer_label>
not satisfied

$$$$
>  <compound>
CCN1C(=O)c2c(O)c(=O)c(C(=O)NCc3ccc(F)c(F)c3)cn2[C@H]2CCOC[C@H]21 [Compound 20]

>  <answer_label>
not satisfied

$$$$
>  <compound>
CCN1C(=O)c2c(O)c(=O)c(C(=O)NCc3cc(Cl)c(F)cc3F)cn2[C@H]2CCOC[C@H]21 [Compound 15]

>  <answer_label>
satisfied

$$$$
>  <compound>
O=C(NCc1c(F)cc(F)cc1F)c1cn2c(c(O)c1=O)C(=O)N[C@@H]1CCCC[C@H]12 [Compound 62]

>  <answer_label>
satisfied

$$$$
>  <compound>
CCN1C(=O)c2c(O)c(=O)c(C(=O)NCc3c(F)cc(F)cc3F)cn2[C@@H]2CCOC[C@H]21 [Compound 12]

>  <answer_label>
not satisfied

$$$$
>  <compound>
CCN1C(=O)c2c(O)c(=O)c(C(=O)NCc3c(F)cc(F)cc3F)cn2[C@@H]2CCCC[C@@H]21 [Compound 5]

>  <answer_label>
satisfied

$$$$
>  <compound>
CN1C(=O)c2c(O)c(=O)c(C(=O)NCc3c(F)cc(F)cc3F)cn2[C@H]2CCOC[C@H]21 [Compound 48]

>  <answer_label>
not satisfied

$$$$
>  <compound>
CCN1C(=O)c2c(O)c(=O)c(C(=O)NCc3ccc(F)c(Cl)c3F)cn2[C@@H]2CCOC[C@H]21 [Compound 13]

>  <answer_label>
satisfied

$$$$
>  <compound>
CN1C(=O)c2c(O)c(=O)c(C(=O)NCc3ccc(F)c(Cl)c3F)cn2[C@@H]2CCO[C@@H]21 [Compound 27]

>  <answer_label>
not satisfied

$$$$
>  <compound>
CCN1C(=O)c2c(O)c(=O)c(C(=O)NCc3c(F)cc(F)cc3F)cn2[C@H]2CCC3(C[C@H]21)OCCO3 [Compound 40b]

>  <answer_label>
satisfied

$$$$
>  <compound>
CCN1C(=O)c2c(O)c(=O)c(C(=O)NCc3c(F)cc(F)cc3F)cn2[C@H]2COC[C@H]21 [Compound 44]

>  <answer_label>
not satisfied

$$$$
>  <compound>
CCN1C(=O)c2c(O)c(=O)c(C(=O)NCc3ccc(F)c(C)c3F)cn2[C@H]2CCOC[C@H]21 [Compound 47]

>  <answer_label>
satisfied

$$$$
>  <compound>
CCN1C(=O)c2c(O)c(=O)c(C(=O)NCc3ccc(F)cc3F)cn2[C@H]2CCOC[C@H]21 [Compound 41]

>  <answer_label>
satisfied

$$$$
>  <compound>
O=C(NCc1c(F)cc(F)cc1F)c1cn2c(c(O)c1=O)C(=O)N(CC(F)(F)F)[C@@H]1CCOC[C@H]12 [Compound 8]

>  <answer_label>
not satisfied

$$$$
>  <compound>
CN1C(=O)c2c(O)c(=O)c(C(=O)NCc3c(F)cc(F)cc3F)cn2[C@@H]2CCOC[C@@H]21 [Compound 30]

>  <answer_label>
satisfied

$$$$
>  <compound>
O=C(NCc1c(F)cc(F)cc1F)c1cn2c(c(O)c1=O)C(=O)N[C@H]1CCC[C@H]12 [Compound 28]

>  <answer_label>
satisfied

$$$$
>  <compound>
O=C(NCc1c(F)cc(F)cc1F)c1cn2c(c(O)c1=O)C(=O)N(CC(F)(F)F)[C@@H]1CCCC[C@H]12 [Compound 7]

>  <answer_label>
satisfied

$$$$
>  <compound>
CN1C(=O)c2c(O)c(=O)c(C(=O)NCc3c(F)cc(F)cc3F)cn2[C@H]2COC[C@H]21 [Compound 42]

>  <answer_label>
not satisfied

$$$$
>  <compound>
O=C(NCc1c(F)cc(F)cc1F)c1cn2c(c(O)c1=O)C(=O)N(CC(F)(F)F)[C@H]1COCC[C@H]12 [Compound 31]

>  <answer_label>
not satisfied

$$$$
>  <compound>
O=C(NCc1c(F)cc(F)cc1F)c1cn2c(c(O)c1=O)C(=O)N[C@H]1CCCC[C@@H]12 [Compound 61]

>  <answer_label>
not satisfied

$$$$
>  <compound>
CN1C(=O)c2c(O)c(=O)c(C(=O)NCc3c(F)cc(F)cc3F)cn2[C@@H]2CCCC[C@H]21 [Compound 1]

>  <answer_label>
satisfied

$$$$
>  <compound>
CCN1C(=O)c2c(O)c(=O)c(C(=O)NCc3cccc(Cl)c3F)cn2[C@H]2CCOC[C@H]21 [Compound 16]

>  <answer_label>
satisfied

$$$$
>  <compound>
CCCN1C(=O)c2c(O)c(=O)c(C(=O)NCc3c(F)cc(F)cc3F)cn2[C@H]2CCOC[C@H]21 [Compound 37]

>  <answer_label>
not satisfied

$$$$
